- procedure details: tissue levels by HPLC after oral administration to rats
- Type: in vivo
- experimental parameters: plasma; rat, 50 mg/kg oral, 15 h; read-out: Tissue levels table, plasma
measurement kind: concentration at 15 h (ng/mL)
Numbers only, in ng/mL.

Incoming: Which concentration at 15 h is listed for CN1CCN(c2c(F)cc3c(=O)c(C(=O)O)cn4c3c2SCC4)CC1 [Compound (h)] ?
Outgoing: 4290

----------
- procedure details: in vivo
- experimental parameters: rat, po, 20 mg/kg
measurement kind: dose excreted at 24 h (%)
Numbers only, in %.

Incoming: Which dose excreted at 24 h is listed for CC1COc2c(N3CCN(C)CC3)c(F)cc3c(=O)c(C(=O)O)cn1c23 (centres unmarked) [Ofloxacin, reference compound] ?
Outgoing: 61

Below: the item to evaluate.
Incoming: Which dose excreted at 24 h is listed for CN1CCN(c2c(F)cc3c(=O)c(C(=O)O)cn4c3c2SCC4)CC1 ?
Outgoing: 77.3

----------
- procedure details: plasma levels by HPLC after intraperitoneal and oral administration to rats
- Type: in vivo
- experimental parameters: plasma, ip; rat, 25 mg/kg i.p., 8 h; read-out: Plasma level
- Method: We give hereinafter in Table 2 the haematic levels of compound (h) as measured in plasma by HPLC. Each value is the average of three tested rats. More precisely in FIG. 1 the plasma levels in rats versus the time, are reported, after i.p. administration of 10 mg/kg and 25 mg/kg of compound (h), while in FIG. 2 the plasma levels are reported of compound (h) in rats, versus the time, after oral administration of 25, 50 and 100 mg/kg of said compound.
measurement kind: concentration at 8 h (ng/mL)
Give bare numbers, in ng/mL.

Incoming: Which concentration at 8 h is listed for CN1CCN(c2c(F)cc3c(=O)c(C(=O)O)cn4c3c2SCC4)CC1 ?
Outgoing: 3720

----------
- procedure details: plasma levels by HPLC after intraperitoneal and oral administration to rats
- Type: in vivo
- experimental parameters: plasma, po; rat, 100 mg/kg os, 0.50 h; read-out: Plasma level
measurement kind: concentration at 0.5 h (ng/mL)
Answers are plain numbers, in ng/mL.

Incoming: Which concentration at 0.5 h is listed for CN1CCN(c2c(F)cc3c(=O)c(C(=O)O)cn4c3c2SCC4)CC1 ?
Outgoing: 12500

----------
- procedure details: plasma levels by HPLC after intraperitoneal and oral administration to rats
- Format: in vivo
- experimental parameters: plasma, ip; rat, 10 mg/kg i.p., 2 h; read-out: Plasma level
measurement kind: concentration at 2 h (µg/mL)
One number for each entry, in µg/mL.

Incoming: Which concentration at 2 h is listed for CN1CCN(c2c(F)cc3c(=O)c(C(=O)O)cn4c3c2SCC4)CC1 ?
Outgoing: 2.17

----------
- procedure details: tissue levels by HPLC after oral administration to rats
- Type: in vivo
- experimental parameters: plasma; rat, 50 mg/kg oral, 2 h; read-out: Tissue levels table, plasma
measurement kind: concentration at 2 h (ng/mL)
Answers are plain numbers, in ng/mL.

Incoming: Which concentration at 2 h is listed for CN1CCN(c2c(F)cc3c(=O)c(C(=O)O)cn4c3c2SCC4)CC1 ?
Outgoing: 9950

----------
- procedure details: plasma levels by HPLC after intraperitoneal and oral administration to rats
- Type: in vivo
- experimental parameters: plasma, po; rat, 25 mg/kg os, 0.50 h; read-out: Plasma level
measurement kind: concentration at 0.5 h (ng/mL)
Numbers only, in ng/mL.

Incoming: Which concentration at 0.5 h is listed for CN1CCN(c2c(F)cc3c(=O)c(C(=O)O)cn4c3c2SCC4)CC1 ?
Outgoing: 5330

----------
- procedure details: tissue levels by HPLC after oral administration to rats
- Type: in vivo
- experimental parameters: kidney; rat, 50 mg/kg oral, 4 h; read-out: Tissue level, kidney
measurement kind: concentration at 4 h (ng/mL)
Numbers only, in ng/mL.

Incoming: Which concentration at 4 h is listed for CN1CCN(c2c(F)cc3c(=O)c(C(=O)O)cn4c3c2SCC4)CC1 ?
Outgoing: 42400

----------
- procedure details: tissue levels by HPLC after oral administration to rats
- Format: in vivo
- experimental parameters: rat, heart, po, read-out: mean tissue level at the moment of peak, heart
measurement kind: Cmax
Quote the value and follow it with the unit of measurement.

Incoming: Which Cmax is listed for CN1CCN(c2c(F)cc3c(=O)c(C(=O)O)cn4c3c2SCC4)CC1 ?
Outgoing: 31400 ng/mL

----------
- procedure details: tissue levels by HPLC after oral administration to rats
- Assay type: in vivo
- experimental parameters: rat, liver, po, read-out: mean tissue level at the moment of peak, liver (second of two values printed for liver)
measurement kind: Cmax (µg/mL)
Give bare numbers, in µg/mL.

Incoming: Which Cmax is listed for CN1CCN(c2c(F)cc3c(=O)c(C(=O)O)cn4c3c2SCC4)CC1 [Compound (h)] ?
Outgoing: 80.4

----------
- procedure details: tissue levels by HPLC after oral administration to rats
- Type: in vivo
- experimental parameters: heart; rat, 50 mg/kg oral, 4 h; read-out: Tissue level, heart
measurement kind: concentration at 4 h
Quote the value and follow it with the unit of measurement.

Incoming: Which concentration at 4 h is listed for CN1CCN(c2c(F)cc3c(=O)c(C(=O)O)cn4c3c2SCC4)CC1 ?
Outgoing: 18100 ng/mL

----------
- procedure details: plasma levels by HPLC after intraperitoneal and oral administration to rats
- Format: in vivo
- experimental parameters: plasma, ip; rat, 25 mg/kg i.p., 2 h; read-out: Plasma level
measurement kind: concentration at 2 h (ng/mL)
Answers are plain numbers, in ng/mL.

Incoming: Which concentration at 2 h is listed for CN1CCN(c2c(F)cc3c(=O)c(C(=O)O)cn4c3c2SCC4)CC1 ?
Outgoing: 6440

----------
- procedure details: plasma levels by HPLC after intraperitoneal and oral administration to rats
- Assay type: in vivo
- experimental parameters: plasma, ip; rat, 10 mg/kg i.p., 0.50 h; read-out: Plasma level
measurement kind: concentration at 0.5 h
Quote the value and follow it with the unit of measurement.

Incoming: Which concentration at 0.5 h is listed for CN1CCN(c2c(F)cc3c(=O)c(C(=O)O)cn4c3c2SCC4)CC1 ?
Outgoing: 2700 ng/mL

----------
- procedure details: plasma levels by HPLC after intraperitoneal and oral administration to rats
- Type: in vivo
- experimental parameters: plasma, ip; rat, 25 mg/kg i.p., 1 h; read-out: Plasma level
measurement kind: concentration at 1 h
Quote the value and follow it with the unit of measurement.

Incoming: Which concentration at 1 h is listed for CN1CCN(c2c(F)cc3c(=O)c(C(=O)O)cn4c3c2SCC4)CC1 ?
Outgoing: 6290 ng/mL

----------
- procedure details: plasma levels by HPLC after intraperitoneal and oral administration to rats
- Type: in vivo
- experimental parameters: plasma, ip; rat, 10 mg/kg i.p., 1 h; read-out: Plasma level
measurement kind: concentration at 1 h (ng/mL)
Answers are plain numbers, in ng/mL.

Incoming: Which concentration at 1 h is listed for CN1CCN(c2c(F)cc3c(=O)c(C(=O)O)cn4c3c2SCC4)CC1 ?
Outgoing: 2530

----------
- procedure details: tissue levels by HPLC after oral administration to rats
- Type: in vivo
- experimental parameters: plasma; rat, 50 mg/kg oral, 0.5 h; read-out: Tissue levels table, plasma
measurement kind: concentration at 0.5 h
Quote the value and follow it with the unit of measurement.

Incoming: Which concentration at 0.5 h is listed for CN1CCN(c2c(F)cc3c(=O)c(C(=O)O)cn4c3c2SCC4)CC1 ?
Outgoing: 8.75 µg/mL

----------
- procedure details: plasma levels by HPLC after intraperitoneal and oral administration to rats
- Type: in vivo
- experimental parameters: plasma, po; rat, 50 mg/kg os, 4 h; read-out: Plasma level
measurement kind: concentration at 4 h (ng/mL)
Give bare numbers, in ng/mL.

Incoming: Which concentration at 4 h is listed for CN1CCN(c2c(F)cc3c(=O)c(C(=O)O)cn4c3c2SCC4)CC1 [Compound (h)] ?
Outgoing: 6370

----------
- procedure details: plasma levels by HPLC after intraperitoneal and oral administration to rats
- Format: in vivo
- experimental parameters: plasma, po; rat, 50 mg/kg os, 1 h; read-out: Plasma level
measurement kind: concentration at 1 h (ng/mL)
Give bare numbers, in ng/mL.

Incoming: Which concentration at 1 h is listed for CN1CCN(c2c(F)cc3c(=O)c(C(=O)O)cn4c3c2SCC4)CC1 ?
Outgoing: 10100

----------
- procedure details: tissue levels by HPLC after oral administration to rats
- Assay type: in vivo
- experimental parameters: rat, plasma, po, read-out: mean level at the moment of peak, plasma
measurement kind: Cmax (ng/mL)
Numbers only, in ng/mL.

Incoming: Which Cmax is listed for CN1CCN(c2c(F)cc3c(=O)c(C(=O)O)cn4c3c2SCC4)CC1 [Compound (h)] ?
Outgoing: 10100

Reference for the values: patent US4684647A
